Where do the numbers come from? From PubChem BioAssay (NCI).

Catalogue of TGI values
Test system: SK-MEL-2 melanoma
Method: NCI tumour cell line growth inhibition, 48 h

Observe how each entry below is paired with its result.
compound=CO/C(N)=C(\C#N)N=Cc1ccccc1 reported_property=TGI result="> 100 µM"
compound=COc1ccc(C(=O)/C=C/c2ccc(OCc3ccc(Cl)cc3)cc2)cc1OC reported_property=TGI result="> 1000 µM"
compound=Cc1c(-c2ccc(O)c(O)c2)oc(=O)c2c(O)cc(O)cc12 reported_property=TGI result="> 100 µM"
compound=CC(C)(C)c1ccc2c(c1)S(=O)(=O)Nc1cccc(c1)NS(=O)(=O)c1cc(C(C)(C)C)ccc1OCCOCCO2 reported_property=TGI result="> 100 µM"
compound=Cn1ncc(NCCn2cnc3c2c(=O)n(C)c(=O)n3C)c(Cl)c1=O reported_property=TGI result="> 100 µM"
compound=COC(=O)CCCc1ccc2c(c1)CC1(Cc3ccccc3C1)C2 reported_property=TGI result="56.1 µM"
compound="Nc1ncc2ccc3c(ccn3C3CC(O)C(CO)O3)c2n1 (stereo unspecified)" reported_property=TGI result="> 100 µM"
compound=COc1ccc(Nc2nc(C#N)c(N)s2)cc1 reported_property=TGI result="> 100 µM"
compound=C=C[C@H]1CN2CCc3c([nH]c4cc(O)ccc34)[C@@H]2C[C@@H]1C[C@H]1c2[nH]c3ccccc3c2CCN1C reported_property=TGI result="7.65 µM"
compound=O=S(=O)(N/N=C/c1c(Cl)cccc1Cl)c1ccccc1 reported_property=TGI result="> 100 µM"

Input line: Indicate its recorded TGI; the compound in question is COc1cc(C(=O)/C=C/c2cc(-c3cc(OC)c(OC)c(OC)c3)n[nH]2)cc(OC)c1OC
Output line: 4.04 µM

Input line: Indicate its recorded TGI; the compound in question is CN(C)CC/C(=N\Nc1c(F)c(F)c(F)c(F)c1F)c1ccccc1
Output line: > 100 µM

Input line: Indicate its recorded TGI; the compound in question is COc1ccc2c(c1)-c1c(c3cc(OC)ccc3n1CCN1CCOCC1)CC2
Output line: > 100 µM

Input line: Indicate its recorded TGI; the compound in question is Cn1ccnc1Cn1cc(-c2cccc(-c3cn[nH]c3)c2)cn1
Output line: > 100 µM

Input line: Indicate its recorded TGI; the compound in question is Cc1ccc2c3c4c(ccc13)C(C)(C)OC4=C(C(C)C)C2=O
Output line: 30.7 µM

Input line: Indicate its recorded TGI; the compound in question is CC(C)=NN/C(=N\S(=O)(=O)c1cc2ccccc2s1)Nc1ccc(Cl)cc1
Output line: > 100 µM

Input line: Indicate its recorded TGI; the compound in question is CCCCCC/C=C\CCCCCCCCCc1cc(O)cc(OC)c1O
Output line: 2.41 µM

Input line: Indicate its recorded TGI; the compound in question is Cc1nc2c(n1-c1ccc(Br)cc1)C(=O)c1ccccc1C2=O
Output line: > 100 µM
